Measured IC50 accompanies every entry in the list below.
biological target: DYRK1A (Homo sapiens, UniProt Q13627); construct: purchased Carna Biosciences, Inc. 04-130; experiment: Inhibition test on activity of DYRK family, mobility shift assay (MSA): DYRK1A; type: biochemical; settings: MSA, FITC-labeled DYRKtide peptide, ATP 100 μM; read-out: Inhibitory activity DYRK 1A (IC50 class)

compound	IC50
O=C1N[C@H]2CCCN(C3COC3)C[C@H]2N1c1nc2c3c(ccc2s1)OCO3 (racemic) [Example 86]	10 to 100 nM
CC(C)N1CC[C@H]2NC(=O)N(c3nc4c5c(ccc4s3)OCC5)[C@H]2C1 (relative stereo) [Example 15]	10 to 100 nM
O=C1N[C@H]2CN(C3CC3)CC[C@H]2N1c1nc2c3c(ccc2s1)OCO3 [Example 87]	100 to 1000 nM
O=C1N[C@H]2CO[C@@H](CF)C[C@H]2N1c1nc2c3c(ccc2s1)OCO3 [Example 140]	< 10 nM
C[C@H]1OC[C@@H]2NC(=O)N(c3nc4c5c(ccc4s3)OCC5)[C@@H]21 [Example 161]	10 to 100 nM
N#C[C@H]1C[C@@H]2[C@H](CO1)NC(=O)N2c1nc2c3c(ccc2s1)OCCO3 [Example 133]	< 10 nM
CN1CC[C@@H]2NC(=O)N(c3nc4c5c(ccc4s3)OCCO5)[C@@H]2C1 (racemic) [Example 76]	10 to 100 nM
CN1CCC[C@@H]2NC(=O)N(c3nc4c5c(ccc4s3)OCO5)[C@@H]2C1 (racemic) [Example 85]	10 to 100 nM

Each recorded value in this set is attributed to patent US20230365589A1.
